# experiment.summary: MMV: Cytotoxicity against human fibroblasts (MRC-5) cells.
# experimental.context: MRC-5 cells (human fibroblasts)
pIC50: −log10 of the molar value.
Kindly state pIC50 for each of the entries shown.

Illustrative cases are given below, each with its answer.
compound	pIC50
CCOc1ccccc1CN1CCc2nc3cc(C(C)(C)C)nn3c(O)c2C1	< 4.49
COc1ccc(C2N(C)c3ccccc3N2C)cc1	< 4.49
Clc1ccc2c(N3CCCC3)ccnc2c1	< 4.49
Oc1ccc(C(=C(Cl)Cl)c2ccc(O)cc2)cc1	< 4.49

Dear colleague, could you send me pIC50 for each of the items below? Thanks.
1. Cn1c(=O)c2cc(C(=O)NCCCN3CCCCCC3)sc2c2ccccc21
2. O=C(Nc1ccc(CN2CCOCC2)cc1)c1ccc(-c2cc(Cl)ccc2Cl)o1
3. Oc1ccccc1CN1CCN(C(c2ccccc2)c2ccccc2)CC1
4. CCCCCCc1cc2cc(-c3csc(C=Cc4ccccc4)n3)c(=O)oc2cc1O
5. CCN(CC)CCNc1ncnc2c1[nH]c1ccc(Br)cc12
6. Cc1cc(N2CCN(C3CCCC3)CC2)n2c(nc3ccccc32)c1C#N
7. CCCN(CCC)CC(O)COc1ccccc1C(=O)Nc1ccccc1 (configuration not stated)
8. O=C(NC(c1ccccc1)c1ccc2cccnc2c1O)c1ccccc1 (configuration not stated)

Ans:
1: < 4.49; 2: 4.76; 3: < 4.49; 4: < 4.49; 5: < 4.49; 6: < 4.49; 7: < 4.49; 8: 4.93

Dear colleague, could you send me pIC50 for each of the items below? Thanks.
1. CCCCCCc1cc2cc(-c3nc4ccccc4[nH]3)c(=Nc3ccccc3C)oc2cc1O
2. CC(=O)c1sc(NC(=O)Nc2ccc(C)cc2C)nc1C
3. COc1ccccc1CNC(=O)CCn1c(=O)[nH]c2ccccc2c1=O
4. COc1ccc(CNC(=O)c2cc3c(=O)n4ccccc4nc3n(CCc3ccccc3)c2=N)cc1
5. Cc1ccnc(NC(c2cccc(OCc3ccccc3)c2)c2ccc3cccnc3c2O)c1 (configuration not stated)
6. Cc1cc(C)c2c(c1)OCN(Cc1ccccc1Cl)C2

Ans:
["< 4.49", "< 4.49", "< 4.49", 4.83, 5.70, "< 4.49"]

Dear colleague, could you send me pIC50 for each of the items below? Thanks.
1. Cc1cc(NC(=O)C2c3ccccc3C(=O)N(CC(C)C)C2c2cccs2)no1 (configuration not stated)
2. CCOC(=O)c1cn(CC)c2cc(N(C)CCc3ccc(OC)c(OC)c3)c(F)cc2c1=O
3. CCOC(=O)c1c(C)n(-c2ccc(Cl)cc2)c2ccc(OC(=O)C=Cc3ccccc3)cc12

Ans:
4.52
< 4.49
4.73

Q: Provide one value: measured pIC50 of Cc1ccc(S(=O)(=O)c2c(COC(=O)c3cccc(C)c3)c(-c3ccccc3)nn2C)cc1
Ans: < 4.49

----------
# experiment.summary: MMV: Cytotoxicity against human fibroblasts (MRC-5) cells.
# experimental.context: MRC-5 cells (human fibroblasts)
pIC50: −log10 of the molar value.
Kindly state pIC50 for each of the entries shown.

Illustrative cases are given below, each with its answer.
compound	observed.value
CC(C)(C)c1ccc(C(=O)Nc2nc3ccccc3s2)cc1	< 4.49
CCCc1cc(O)c2c3c(c(=O)oc2c1)CN(C)CC3	< 4.49
O=C(Nc1ccc(F)c(Cl)c1)Nc1ccc(Cl)c(Cl)c1	5.35
Clc1cc(Br)ccc1-c1ccc(CNCC2CCNCC2)o1	5.39
c1ccc2cc3c(Nc4ccc(N5CCOCC5)cc4)ccnc3cc2c1	< 4.49
CCOc1ccc(-n2cc(-c3ccccc3)c3c(SCc4cc(C)ccc4C)ncnc32)cc1	< 4.49
CC(C)CNC(=O)c1c(N)n(CCc2ccccc2F)c2nc3ccccc3nc12	< 4.49
COc1cccc(C2(C)Nc3ccccc3-c3nc4ccccc4n32)c1 (centres undefined)	4.58

Dear colleague, could you send me pIC50 for each of the items below? Thanks.
1. CCOC(=O)C1=C(c2ccccc2)N=c2sc(=Cc3cc(C)n(-c4ccc(F)cc4)c3C)c(=O)n2C1c1cccc(OC)c1OC (centres undefined)
2. O=C(Nc1ccc(Cl)cc1)N1CCN(c2ccc3nncn3n2)CC1
3. CCOC(=O)c1c[nH]c2c(CC)cccc2c1=O
4. COc1cc(CNCCc2ccc(Cl)cc2)cc(OC)c1O
5. CCCc1c(CC)c(=N)c2ccccc2n1C
6. O=C(Nc1ccc(Cl)c(Cl)c1)Nc1ccc(Cl)c(Cl)c1

Ans:
["< 4.49", "< 4.49", "< 4.49", "< 4.49", 4.51, "< 4.49"]

Dear colleague, could you send me pIC50 for each of the items below? Thanks.
1. CNCCCNc1ccnc2cc(Cl)ccc12
2. Cc1cccc(Nc2nc(N)c3ccccc3n2)c1
3. Cc1cc(=O)oc2c1ccc1oc(C(=O)c3ccccc3)c(C)c12
4. Cc1ccccc1OCCSc1nc2ccc(NC(=O)c3ccccc3)cc2s1
5. Nc1ccc(-c2nc3cc(Cc4ccc5[nH]c(-c6ccc(N)cc6)nc5c4)ccc3[nH]2)cc1
6. COc1ccccc1N1C(=N)SC(=Cc2ccc(OCc3ccccc3F)cc2)C1=O
7. Cn1c(C(=O)c2cccc3ccccc23)nc2ccccc21

Ans:
< 4.49
< 4.49
5.20
< 4.49
4.94
< 4.49
< 4.49

Dear colleague, could you send me pIC50 for each of the items below? Thanks.
1. O=C(Nc1ccc(Cl)cc1C(=O)Nc1ccncc1)c1ccc(Cl)cc1Cl
2. C=CC12CCN(CC1)C(C(O)c1ccnc3ccc(OC)cc13)C2 (centres undefined)
3. Cc1cc(C)cc(Nc2cc(C)nc3nc(C(F)(F)F)nn23)c1

Ans:
< 4.49
< 4.49
< 4.49

Dear colleague, could you send me pIC50 for each of the items below? Thanks.
1. Cc1cc(Nc2cccc(F)c2)nc(NCc2ccccc2)n1
2. Oc1ccc2ccccc2c1CNc1nc2ccccc2[nH]1
3. FC(F)(F)c1ccc(Nc2nnnc3ccccc23)cc1
4. Cc1[nH]c(-c2ccc(F)cc2)cc1C(=O)NC1CCN(Cc2ccccc2)CC1

Ans:
< 4.49
< 4.49
< 4.49
< 4.49

----------
Kindly state IC50 for each of the entries shown.
# experiment.summary: MMV: Cytotoxicity against human fibroblasts (MRC-5) cells.
# experimental.context: MRC-5 cells (human fibroblasts)

Illustrative cases are given below, each with its answer.
compound	measured.endpoint	observed.value
O=C(NC1CCN(Cc2ccccc2)CC1)c1cc(-c2ccncc2)nc2ccc(Cl)cc12	IC50	> 32 µM
COc1cc(C(=O)Nc2nc3c(cc4c5c(cccc53)CC4)s2)cc(OC)c1OC	IC50	> 32 µM

Dear colleague, could you send me IC50 for each of the items below? Thanks.
1. O=C(NC1CCCC1)c1ccc(N2CCC(NCc3cccc(C(F)(F)F)c3)CC2)cc1
2. CCOC(=O)C1=C(C)N=c2sc(=Cc3ccccc3O)c(=O)n2C1c1ccc(OC)c2ccccc12 (stereo not given)
3. O=C(Nc1ccsc1C(=O)NC1CCCCC1)c1ccc(F)cc1
4. COc1ccc(C2NCCc3c2[nH]c2ccccc32)cc1CN1CCN(c2ccc(F)cc2)CC1 (stereo not given)

Ans:
1. > 32 µM
2. > 32 µM
3. > 32 µM
4. 3.94 µM

Dear colleague, could you send me IC50 for each of the items below? Thanks.
1. O=C(NCCCN1CCC(N2CCCCC2)CC1)C1=Cc2cc(Br)ccc2OC1
2. CCn1nc(-c2ccc(C(=O)OC)cc2)nc2c(=O)n(C)c(=O)nc1-2
3. COc1ccc(CNC2CCN(c3ccc(NC(=O)c4cccc(Cl)c4)cc3)CC2)cc1OC
4. O=c1nc(C=Cc2ccc(Cl)cc2)oc2ccccc12

Ans:
1. 12 µM
2. 3.53 µM
3. > 32 µM
4. > 32 µM

----------
# experiment.summary: MMV: Cytotoxicity against human fibroblasts (MRC-5) cells.
# experimental.context: MRC-5 cells (human fibroblasts)
measured.endpoint: IC50

Dear colleague, could you send me IC50 for each of the items below? Thanks.
1. COc1ccc2c(c1OC)C(=O)N1c3ccccc3N=C(c3ccc(C)cc3)CC21 (configuration not stated)
2. COC(=O)c1ccc(C2C3=C(O)CC(c4ccc(F)cc4)CC3=Nc3ccccc3N2C(=O)c2ccccc2)cc1 (configuration not stated)
3. CCN(CC)CCNc1ccnc2cc(Cl)ccc12
4. COc1cc(-c2nc(-c3ccc(Sc4ccccc4)cc3)c(-c3ccccc3)[nH]2)cc(OC)c1O
5. CC(C)OCc1cc(CN2CCN(c3cccc(Cl)c3)CC2)c(O)c2ncccc12
6. CCOc1c(Br)cc(C2C(C(=O)OC)=CN(C)C=C2C(=O)OC)cc1OC
7. Cc1sc(NC(=O)c2ccccc2)c(C(c2cccs2)N2CCN(c3ccccc3)CC2)c1C (configuration not stated)
8. CCN(Cc1ccccc1)C1CCN(Cc2cc(Br)ccc2O)CC1

Ans:
["> 32 µM", "> 32 µM", "> 32 µM", "8.45 µM", "1.17 µM", "> 32 µM", "> 32 µM", "> 32 µM"]
